All figures here come from patent US9670227B2.

System: H929 multiple myeloma tumour line
Test description: In vitro cytotoxicity, Microculture Tetrazolium Assay
Assay type: cell-based
Reported conditions: Homo sapiens, NCI-H929, 48 h, H929 cells, 48 hours exposure, MTT; read-out: IC50 (μM) MTT H929
Entries and their measured IC50 follow.
A number alone suffices; assume µM.

Field: example entries. Status: answers known.
{"Molecule": "COCCOC(=O)C(Cc1ccccc1OCc1ccnc(-c2ccccc2OC)n1)Oc1ncnc2sc(-c3ccc(F)cc3)c(-c3ccc(OCCN4CCN(C)CC4)c(Cl)c3C)c12 (stereo not drawn)", "Measurement": 0.206}
{"Molecule": "Cc1c(-c2c(-c3ccc(Cl)o3)sc3ncnc(OC(Cc4ccccc4OCc4ccnc(C(F)(F)F)n4)C(=O)O)c23)ccc(OCCN2CCN(C)CC2)c1Cl (stereo not drawn)", "Measurement": 0.015}

Turning to the following molecule.
input: I would be grateful if you could share the reported IC50 for COCCOCCOc1ccccc1CC(Oc1ncnc2sc(-c3ccc(F)o3)c(-c3ccc(OCCN4CCN(C)CC4)c(Cl)c3C)c12)C(=O)O (stereo not drawn) .
output: 0.076

---

Test system: H929 multiple myeloma tumour line
Test description: In vitro cytotoxicity, Microculture Tetrazolium Assay
Format: cell-based
Reported conditions: Homo sapiens, NCI-H929, 48 h, H929 cells, 48 hours exposure, MTT; read-out: IC50 (μM) MTT H929
Entries and their measured IC50 follow.
Don't forget the unit after the value.

{"Compound": "COc1ccccc1CC(Oc1ncnc2sc(-c3ccc(F)c(O)c3)c(-c3ccc(OCCN4CCN(C)CC4)c(Cl)c3C)c12)C(=O)O (stereo not drawn)", "Assay endpoint": "IC50", "Measurement": "0.413 µM"}

input: I would be grateful if you could share the reported IC50 for CCc1sc2ncnc(OC(Cc3ccccc3)C(=O)O)c2c1-c1ccc(OCC(=O)N(C)C)c(Cl)c1C (stereo not drawn) .
output: 20 µM

input: Try this compound too: CCc1c(-c2c(-c3ccco3)sc3ncnc(OC(Cc4ccccc4OC)C(=O)O)c23)ccc(OCCN2CCN(C)CC2)c1Cl (stereo not drawn)
output: 0.217 µM

input: Try this compound too: CCn1nccc1COc1ccccc1CC(Oc1ncnc2sc(-c3ccco3)c(-c3ccc(OCCN4CCN(C)CC4)c(Cl)c3C)c12)C(=O)O (stereo not drawn)
output: 0.034 µM

input: Try this compound too: C#Cc1ccc(-c2sc3ncnc(OC(Cc4ccccc4OC)C(=O)O)c3c2-c2ccc(OCCN3CCN(C)CC3)c(Cl)c2C)o1 (stereo not drawn)
output: 0.347 µM

input: Try this compound too: Cc1c(-c2c(-c3ccco3)sc3ncnc(OC(Cc4ccccc4OCC(=O)Nc4ccccc4)C(=O)O)c23)ccc(OCCN2CCN(C)CC2)c1Cl (stereo not drawn)
output: 0.191 µM

---

Tested on: H929 multiple myeloma tumour line
Test description: In vitro cytotoxicity, Microculture Tetrazolium Assay
Type: cell-based
Reported conditions: Homo sapiens, NCI-H929, 48 h, H929 cells, 48 hours exposure, MTT; read-out: IC50 (μM) MTT H929
Threshold-based label: IC50 under 0.2 µM gives Yes, IC50 not under 0.2 µM gives No.

The following compounds have reported results that may help.
{"Compound": "COc1cc(-c2sc3ncnc(OC(Cc4ccccc4OCC4CCCO4)C(=O)O)c3c2-c2ccc(OCCN3CCN(C)CC3)c(Cl)c2C)ccc1F (stereo not drawn) [Example 379]", "Class assignment": "Yes"}
{"Compound": "COc1ccccc1CC(Oc1ncnc2sc(-c3cccc([N+](=O)[O-])c3)c(-c3ccc(OCCN4CCN(C)CC4)c(Cl)c3C)c12)C(=O)O (stereo not drawn) [Example 545]", "Class assignment": "No"}
{"Compound": "Cc1c(-c2c(-c3ccc(F)o3)sc3ncnc(OC(Cc4ccccc4OCc4ccnc(C(F)(F)F)n4)C(=O)O)c23)ccc(OCCN(C)C)c1Cl (stereo not drawn) [Example 201]", "Class assignment": "Yes"}
{"Compound": "COc1ccccc1CC(Oc1ncnc2sc(-c3ccc(F)c(C(F)(F)F)c3)c(-c3ccc(OCCN4CCN(C)CC4)c(Cl)c3C)c12)C(=O)O (stereo not drawn) [Example 531]", "Class assignment": "No"}
{"Compound": "CCOc1nccc(COc2ccccc2CC(Oc2ncnc3sc(-c4ccc(F)cc4)c(-c4ccc(OCCN5CCN(C)CC5)c(Cl)c4C)c23)C(=O)O)n1 (stereo not drawn) [Example 57]", "Class assignment": "Yes"}

Kindly consider the entry below.
input: Find out if reported IC50 for Cc1c(-c2c(-c3ccco3)sc3ncnc(OC(Cc4ccccc4OCc4cnnn4Cc4ccccc4)C(=O)O)c23)ccc(OCCN2CCN(C)CC2)c1Cl (stereo not drawn) [Example 295] is less than 0.2 µM
output: Yes
